// reported apparent KD of MS2 coat protein for each item listed
Test system: MS2 coat protein
Assay: apparent KD of MS2 coat protein; higher = weaker reporter binding
Details: Eterna round: R107; input ligand: theophylline 2 mM
Reply numerically in nM, unit not repeated.

{"columns": ["Sequence Chain", "apparent KD of MS2 coat protein (nM)"],
 "data": [
  ["CUAAGAGCGGCGGCCGCCACUGGUAACCGAGAGGAGGAGCUUCUGAACAUGAGGAUCACCCAUGUCAGGACCGGGUCGUCUUAGA [Same State - Tryptophan B]", 14.9],
  ["AGACACAUGAGGAUCACCCAUGUACACGAGCGAGGACCGGUACGGCCGCCACUCGUCCAAGCAACUAAUGAGACUCGUAAGAUGG [theeternabot_sameState_MS2_Trp_A_5]", 23.4],
  ["CUCUCAUGAACAUGAGGAUCACCCAUGUAACGAGGACCGGUACGGCCGCCACUCGGUCGUGGAAACUAAUCGAGUGAGGUGGGAG [Tryp A Ex t5c]", 75.3],
  ["UAUAUAGAUGGAAGUCAUAUAGAUGCAGAAGGAGCGUAGGAAACUACAGGUAGGUCGCUGAGGUACAUGAGGAUCACCCAUGUAG [SSArg A #18 Slice of Pi]", 25.3],
  ["AGCGAUUUCGGAAGGAGCGGUACAUGAGGAUCACCCAUGUAUUCAAUCGUGAUCGGCGCGUGCCAGGUAGGUCGCCGAAGGCGUC [Veatat]", 10.9],
  ["CUAUGCAGGUCGGCCGCCACUACACACAUGAGGAUCACCCAUGUAGUUACUGGGUGAAGUGGCAGUAGGACCGGGACCUGCAUAC [Brourdmod10]", 817],
  ["UCGGGCAGAGCGGCCGCCACUGUUUGGCAUGCGGAUGACGGAACAUGAGGAUCACCCAUGUUGAUUAGGACCGGGCUUGCGGAGA [eefullin]", 25.1],
  ["GCGAUGGAGCGAAGGAGCGUGCUGGUACAUGAGGAUCACCCAUGUGAGUCGCAGCGCUAAGCACAGGUAGGUCGCGCUCCAUCGC [EAB NP+V+V2 #11]", 34.5],
  ["GACAAUAAUUCAACAAUCAAAAUAGUGGGACGAGGACCGGUACGGCCGCCACUCGCUGAAGCACAUGAGGAUCACCCAUGUCUAA [theeternabot_exclusion_MS2_Trp_A_47]", 18.7],
  ["ACCUGUACGAAAAGUGCAGGACACGGAAUACGAGGACCGGUACGGCCGCCACUCGGAAUAAACCUGAGGAUCACCCUGGUCCGUG [TrypAS 9 #AlternativeMS2 #Zipper #StaticStem]", 34.4]
]}

Under MS2 coat protein: apparent KD of MS2 coat protein value of UACUUGCUGACGGCCGCCACUAGUACAUGAGGAUCACCCAUGUACGGUCGCCCGGUGUGAUCCACUAGGACCGGGUCAGCAAGAU [(Trp1)-(Ms2)-(T)'-(M)'-(Trp2)_Design24] ?
48.5

Please state recorded apparent KD of MS2 coat protein (tested on MS2 coat protein) of AACAGGGUCUGAAGGAGCGCGAUCACAUGAGGAUCACCCAUGUGAAAUGGUAGAUGAUACUCGCAGGUAGGUCGCAGUACUUGAC [Same State Arginine B GF 15]
82.4

---

Tested on: K4 kissing-loop RNA reporter;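 further: bound reporter read as fluorescence of individual clusters on recovered sequencing chips by microscopy, with normalized cluster intensities fitted with a binding model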
Test: apparent KD of K4 kissing-loop reporter; higher = weaker reporter binding
Conditions: Eterna round: R107; input ligand: tryptophan 2.4 mM
Reported apparent KD of K4 kissing-loop reporter is given for each of the following sequences.
Number in nM, nothing else.

{"columns": ["Sequence Chain", "Experimental System", "Numeric Readout"],
 "data": [
  ["UAGCGUCUGCGAGGAUAUCGGAUUAGAGUGAUGUUCUAAAGACGCCCAGUGAUGUUGGAUGCGAUACGAGAAGGCGCUGGGCGCG [Same State FMN B GF7]", "K4 kissing-loop RNA reporter", 297]
]}

Returns the measured apparent KD of K4 kissing-loop reporter for the input sequence. Input: CAGUUCUAUUCCGGUAGUGAUGUUACCAAGCGAGGACCGGUACGGCCGCCACUCGAGUGACAGACGUACUGGUAUCACCCGCUUC
142

Recorded apparent KD of K4 kissing-loop reporter of AUUAUAAAGGCGGCCGCCACUAGUGAUGUUAGUGACUUAUGUAUUAUCAUAAGAAUAAAAUAAAAUAGGACCGGGCCAAAAUAUU [AstrosExTryB#3] , please.
483

---

Test system: MS2 coat protein
Assay: apparent KD of MS2 coat protein; designed switch direction (-1 OFF switch, 1 ON switch): -1; higher = weaker reporter binding
Settings: Eterna round: R95; input ligand: microRNA oligo, concentration not stated
Reported Property: apparent KD of MS2 coat protein (nM)
Hi! Could you send only the number? It should be in nM, unit omitted.

Examples with answers:
{"columns": ["Sequence Chain", "apparent KD of MS2 coat protein (nM)"],
 "data": [
  ["AGUACUAACACGAGAGUGUUAGUACAAUAAGCUUGUGUUACAUGAGGAUCACCCAUGUCCUCAUAAGCUCGUCUUAA [Mat - Sensor v3 - Turn-off var 2 - D58] (puzzle: Sensor v3, turn-off variant 2)", 727],
  ["CUUAGACAUGAGGAUCACCCAUGUGAGGAUAUGAUGCGAUCGUGCUGACAUGAUCGCAUCAGAAGGCACAUAUG [JL-ex1-01 Hyphema Mod2] (puzzle: Exclusion 1)", 120],
  ["GACCCUAGGGUCAGAUGCACAAGCUUUUUGCUCGUUUUAACAUGAGGAUCACCCAUGUCUAGUGGAUCUGAUCGGGC [Erorente] (puzzle: Sensor v3, turn-off variant 2)", 88.8],
  ["CAUCCAGCUUCCCUUCAAAACAUGAGGAUCACCCAUGUUUUUGUUUUUACAAGCUUUUUGCUUUUUGCUCGUCUUGU [A Humble Attempt... Again] (puzzle: Sensor v3, turn-off variant 1)", 16]
]}

Now for the sequence whose apparent KD of MS2 coat protein we want.
Which apparent KD of MS2 coat protein is listed for AAUAAUAGGGAGGAUAUCGUAUCGGAAACGAUACGAGAAGGUCUAACAUGAGGAUCACCCAUGUUCCUCAAUAA [Fiskers Ex 6 - 5] (puzzle: Exclusion 6) ?
40.6

---

System: MS2 coat protein
Test: apparent KD of MS2 coat protein; higher = weaker reporter binding
Details: Eterna round: R107; input ligand: tryptophan 2.4 mM
Label yes (1) when apparent KD of MS2 coat protein is at or above 40 nM; anything below gets no (0).

Does apparent KD of MS2 coat protein meet or surpass 40 nM for UUCUGGUCCCGUGAUACCAGAGACAUGAGGAUCACCCAUGUACAUGAGGAUCACCCAUGUUUCCCUUGGCAGCACUGUAGGGAGC [Exclusion Theophylline B GF 16] ?
yes (1)

Determine whether measured apparent KD of MS2 coat protein meets or exceeds 40 nM for GACAUGAGGAUCACCCAUGUACCGCGAGAAGGAGCGCGGAUAAACGCAGGUAGGUCGCUCGUGGGCUUACAUUCAAGUGUAAGCU [Usarat]
no (0)

Has AACGUAUACAGAAGGAGCGUGAAUUAUAUUACUCAUUCAUAUACAUGAGGAUCACCCAUGUCACAGGUAGGUCGCUGUAUUCGUA [JR_ExcArginiB_Sub020] a recorded apparent KD of MS2 coat protein greater than or equal to 40 nM?
yes (1)

Reported apparent KD of MS2 coat protein at or above 40 nM? UACAUAUGCCGAAGGAGCGCGAGAUGCAAAGCAUCAAUCCUUACAUGAGGAUCACCCAUGUCGCAGGUAGGUCGCGGCAUAUGUU [ArgBX 2]
no (0)

State whether the measured apparent KD of MS2 coat protein reaches 40 nM, counting equality as reaching it, for UCGUAGGUAGGAAGGAGCGCAUACUUCACAUGAGGAUCACCCAUGUCGAGACGUGAGUCAGUGCAGGUAGGUCGCCUAGUUAUGA [Same State - Arginine B (Freestyle 24)]
no (0)

Kindly determine if apparent KD of MS2 coat protein recorded for AGCCAUGGAAACAUGGCGGCGGCUUGGGCGCGAGGACCGGUACGGCCGCCACUCGGGCAACAUGAGGAUCACCCAUGUUCCUCAU [ETA NP+V+V2 #18] is above or exactly 40 nM.
yes (1)

---

System: MS2 coat protein
Assay: apparent KD of MS2 coat protein; designed switch direction (-1 OFF switch, 1 ON switch): -1; higher = weaker reporter binding
Settings: Eterna round: R95; input ligand: none
apparent KD of MS2 coat protein of 0.09 µM or higher: Condition met. Under 0.09 µM: Condition not met.

{"columns": ["Sequence Chain", "Class Label"],
 "data": [
  ["UGGUAACAUGAGGAUCACCCAUGUCAGGAUAUCAGUAAGAAUAGAGGAGAGUAGAAGAUGAGAAGGGACUAUAU [Excluse me! 8 - Jieux - Exclusion 1] (puzzle: Exclusion 1)", "Condition not met"],
  ["GCCAGAGCAGGAUAUUCAGUAUCACACAUGAGGAUCACCCAUGUCUAUCGAAAGAUAGAGGGAGAAGGGCUCUGGC [Mat - Exclusion 5 - Eli mod - D95] (puzzle: Exclusion 5)", "Condition met"],
  ["CGUACUAACACGAAAGUGUUAGUACAAUAAGCUUGUGAAACAUGAGGAUCACCCAUGUCCUCAUAAGCUCGUCUUAG [salish99_TOv2_r3_008] (puzzle: Sensor v3, turn-off variant 2)", "Condition not met"],
  ["CUGAGGUAGCGGUCCUAUGACAUGAGGAUCACCCAUGUACCUUGCUAUAAGCUUUUUGCUCGUCUUAUGAUUCUCGG [JL Atriat mod 7] (puzzle: Sensor v3, turn-off variant 1)", "Condition met"],
  ["GGAAUACAUGAGGAUCACCCAUGUAAGGAUAUGCUGAAUAUCACGGAAUAAACGUGCAGCAGAAGGUACAAAGG [Mat - Mod of my Eli Mod D46] (puzzle: Exclusion 1)", "Condition met"]
]}

For this sequence, is measured apparent KD of MS2 coat protein 0.09 µM or higher? CCAGGCGUCUUUGCUCGUCUUAUUUGGAGAUGACUGUUAACAUGAGGAUCACCCAUGUGUGUGGGAGCGUUGCAGUC [JR_SV3TOV2_Sub021] (puzzle: Sensor v3, turn-off variant 2)
Condition met

I'd appreciate it if you could say whether ACAAGCUCUUUGCAACUUAGUUUUGUUGCUUCGUAGGUAACAUGAGGAUCACCCAUGUAAGAGUGAUGUCGUCUUAU [JR_SV3TOV2_Sub085] (puzzle: Sensor v3, turn-off variant 2) has apparent KD of MS2 coat protein at least equal to 0.09 µM.
Condition not met

Does the reported apparent KD of MS2 coat protein for UUUAAUUUUUUUUUUUUACAAGCUUUUUGCUCGUCUUAUACAUGAGGAUCACCCAUGUGGGUGAGGGAUAAAUUAUC [JMF 42] (puzzle: Sensor v3, turn-off variant 2) fall at or above the 0.09 µM mark?
Condition met

Please tell me: is the sequence AAUCCACAUGAGGAUCACCCAUGUGAGGAUAUGAUACUAUGUACUUCGGUACAUAGUAUCAGAAGGCACAUGAA [Ex1-3: 50] (puzzle: Exclusion 1) at or over 0.09 µM in terms of apparent KD of MS2 coat protein?
Condition not met
